Source listed as PubChem BioAssay AID434947.

# Method Notes: ADP-Glo luciferase signal interference – biochemical, luminescence, cell-free, homogeneous, artefact control for GSK3beta inhibitor project, dose response (AID 434947);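 also: kinase-free counter screen of ADP-Glo detection reagents for GSK3beta hits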
# Protocol Conditions: Cell-free ADP-Glo reagents, 5 uM ADP
The whole screen tested about 2,200 compounds, of which about 15 (0.7%) were called active.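 The calls were made as follows: active = fitted half-maximal concentration for loss of luminescence signal no more than a set limit of log units above the top tested concentration; inconclusive = flat fit with 30 to 70% signal loss, or invalid fit; inactive = half-maximal concentration above that set limit.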 This excerpt belongs to a sample that is enriched for actives.
Give one outcome, nothing more. List: true = active, false = inactive

## Input Hi, sorry to bother you, what did the test record for COc1ccc(/C=C2/Sc3ccc(C(=O)NCCN4CCCCCC4)cc3NC2=O)cc1 ?
## Output false

## Input Hi, sorry to bother you, what did the test record for CN1CCN(c2ccccc2NC(=O)c2ccc(Br)o2)CC1 ?
## Output false

## Input Hi, sorry to bother you, what did the test record for Cc1cc(NC(=O)CSc2nnc(C3CC3)n2Cc2ccccc2)no1 ?
## Output false

## Input Hi, sorry to bother you, what did the test record for CC(C)N1CCc2c(sc(NC(=O)CCS(=O)(=O)c3ccccc3)c2C(N)=O)C1 ?
## Output false

## Input Hi, sorry to bother you, what did the test record for NNC(=O)CNC(=O)c1ccc(F)cc1 ?
## Output false

## Input Hi, sorry to bother you, what did the test record for CCCC(=O)Nc1nn(CC(C)C)c2nc3cc(C)ccc3cc12 ?
## Output false

## Input Hi, sorry to bother you, what did the test record for OCCNc1nc(-c2cccnc2)nc2ccccc12 ?
## Output false

## Input Hi, sorry to bother you, what did the test record for O=C(O)COc1ccc(C(=O)c2ccccc2)cc1 ?
## Output false

## Input Hi, sorry to bother you, what did the test record for COC(=O)c1nnn(-c2nonc2N)c1CSc1ccc(Cl)cc1 ?
## Output false

## Input Hi, sorry to bother you, what did the test record for O=C(Nc1ccnn1C1CCN(Cc2cccc(OCCO)c2)CC1)C1CCCC1 ?
## Output false

## Input Hi, sorry to bother you, what did the test record for Cc1csc2c(=O)n(CCO)c(=O)[nH]c12 ?
## Output false

## Input Hi, sorry to bother you, what did the test record for O=c1c2ccccc2cnn1-c1nc2ccccc2[nH]1 ?
## Output true

## Input Hi, sorry to bother you, what did the test record for CCc1nnc(NC(=O)c2cc(-c3ccccc3)nn2-c2ccccc2)s1 ?
## Output false

## Input Hi, sorry to bother you, what did the test record for COc1ccc2nc(C)cc(N3CCOCC3)c2c1 ?
## Output false

## Input Hi, sorry to bother you, what did the test record for O=C(Nc1ccccc1)Nc1ccncc1 ?
## Output false

## Input Hi, sorry to bother you, what did the test record for CN1CCN(C(=O)Cn2ncc3c([nH]c4ccccc43)c2=O)CC1 ?
## Output false

## Input Hi, sorry to bother you, what did the test record for Cc1cc(NC(=O)/C=C/c2cccc(F)c2)n(-c2nc3ccccc3[nH]2)n1 ?
## Output false

## Input Hi, sorry to bother you, what did the test record for CC(=O)Oc1cc(C)cc2oc(=O)cc(-c3ccccc3)c12 ?
## Output false

## Input Hi, sorry to bother you, what did the test record for Cc1ccc(C(=O)O/N=C\c2ccc(N3CCCCC3)c([N+](=O)[O-])c2)cc1 ?
## Output false

## Input Hi, sorry to bother you, what did the test record for O=C(CN(Cc1cccs1)C(=O)CCC(=O)Nc1ccccn1)NCc1ccccc1 ?
## Output false

## Input Hi, sorry to bother you, what did the test record for Clc1ccc(-c2nnc(-c3ccccc3)c(N3CCSCC3)n2)cc1 ?
## Output false

## Input Hi, sorry to bother you, what did the test record for Cc1ccccc1-c1nnc(SCc2ccc(F)cc2)o1 ?
## Output false

## Input Hi, sorry to bother you, what did the test record for Cc1ccc(S(=O)(=O)CC(=O)c2cc3cccc(C)c3oc2=O)cc1 ?
## Output false

## Input Hi, sorry to bother you, what did the test record for CC(C(=O)NCc1ccccc1)n1cc([N+](=O)[O-])cn1 (centres undefined) ?
## Output false

----------
# Method Notes: ADP-Glo luciferase signal interference – biochemical, luminescence, cell-free, homogeneous, artefact control for GSK3beta inhibitor project, dose response (AID 434947);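 also: kinase-free counter screen of ADP-Glo detection reagents for GSK3beta hits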
# Protocol Conditions: Cell-free ADP-Glo reagents, 5 uM ADP
The campaign covered roughly 2,200 compounds. About 15 (0.7%) were called active. Only a selection was taken, and actives are over-represented in it overall.
Measurement Type: EC50

## Input Reported EC50 for Cn1c(=S)n(CCC(=O)O)c2ccccc21 : what is it?
## Output > 30 µM (inactive)

## Input Reported EC50 for CCCNC(=O)c1ccc(Cl)cc1Cl : what is it?
## Output > 30 µM (inactive)

## Input Reported EC50 for Cc1ccc2c(C)c(C(=O)Nc3nnc(C)s3)oc2c1 : what is it?
## Output > 30 µM (inactive)

## Input Reported EC50 for Nc1nc(NCCCN2CCOCC2)nc(Nc2ccc(Cl)cc2)c1[N+](=O)[O-] : what is it?
## Output > 30 µM (inactive)

## Input Reported EC50 for N#Cc1c(-c2ccccc2)nc(SCC(=O)Nc2ccc(OC(F)(F)Cl)cc2)[nH]c1=O : what is it?
## Output > 30 µM (inactive)

## Input Reported EC50 for COc1cccc(N=Nc2c(N)[nH][nH]c2=O)c1 : what is it?
## Output > 30 µM (inactive)
